Origin of values: patent US6770659B2

System: climbing behavior induced by apomorphine in mice
experimentSummary: Climbing Mouse Assay (anti-climbing behavior test)
Assay type: in vivo
experimentalContext: Mus musculus; intraperitoneal administration; ICR CD strain male mice; apomorphine challenge; read-out: Climbing Mouse Assay ED50 i.p.
A collection of compounds and their measured ED50

compound	unitAbbrev	ED50
CO[C@@H](CN1CCC(C(=O)c2ccc(F)cc2)CC1)c1ccc([N+](=O)[O-])cc1	mg/kg	24.2
COC(CN1CCC(C(=O)c2ccc(F)cc2)CC1)c1ccc(C(C)C)cc1 (stereo not drawn)	mg/kg	0.17
COC(CN1CCC(C(=O)c2ccc(F)cc2)CC1)c1ccc([N+](=O)[O-])cc1.Cl (stereo not drawn)	mg/kg	5.9

* * *

Tested on: climbing behavior induced by apomorphine in mice
experimentSummary: Climbing Mouse Assay (anti-climbing behavior test)
Type: in vivo
experimentalContext: Mus musculus; intraperitoneal administration; ICR CD strain male mice; apomorphine challenge; read-out: Climbing Mouse Assay ED50 i.p.
Experimental: This activity was examined through the anti-climbing behavior test, i.e. the test for suppressing the climbing behavior induced by apomorphine in mice. […] For evaluation of climbing, 3 readings are taken at 10, 20 and 30 minutes after apomorphine administration according to the following scale: […] The climbing scores are individually totaled (maximal score: 12 per mouse over 3 readings) and the total score of the control group (vehicle intraperitoneally-apomorphine subcutaneously) is set to 100%. […]
We label by threshold. Values of ED50 strictly beneath 2 mg/kg are met. Values of 2 mg/kg and up are not met.

compound	assignedCategory
Cl.NC(=O)OC(CN1CCC(C(=O)c2ccc(F)cc2)CC1)c1ccc(C(F)(F)F)cc1 (stereo not shown)	met
Cl.NC(=O)OC(CN1CCC(C(=O)c2ccc(F)cc2)CC1)c1cccc(Cl)c1 (stereo not shown)	met
Cl.O=C(NCc1ccccc1)OC(CN1CCC(C(=O)c2ccc(F)cc2)CC1)c1ccccc1 (stereo not shown)	not met
Cl.NC(=O)O[C@H](CN1CCC(C(=O)c2ccc(F)cc2)CC1)c1ccccc1	met
Cc1nc2n(c(=O)c1CCN1CCC(c3noc4cc(F)ccc34)CC1)CCCC2 [Risperidone, reference compound]	met
CCc1ccc([C@@H](CN2CCC(C(=O)c3ccc(F)cc3)CC2)OC)cc1	met
CO[C@H](CN1CCC(C(=O)c2ccc(F)cc2)CC1)c1ccc([N+](=O)[O-])cc1	not met
CO[C@H](CN1CCC(C(=O)c2ccc(F)cc2)CC1)c1ccc(C(C)C)cc1	met
O=C(c1ccc(F)cc1)C1CCN(CC(COc2ccccc2)OC(=O)N2CCCCCC2)CC1 (stereo not shown)	met
CC(C)OC(=O)OC(CN1CCC(C(=O)c2ccc(F)cc2)CC1)c1cccc(Cl)c1 (stereo not shown)	not met
CCc1ccc(C(CN2CCC(C(=O)c3ccc(F)cc3)CC2)OC)cc1 (stereo not shown)	met
CN1CCN(C2=Nc3cc(Cl)ccc3Nc3ccccc32)CC1 [Clozapine, reference compound]	not met
Cl.NC(=O)OC(CN1CCC(C(=O)c2ccc(F)cc2)CC1)c1ccccc1 (stereo not shown)	not met
CCc1ccc(C(CN2CCC(C(=O)c3ccc(F)cc3)CC2)OC(=O)OC)cc1 (stereo not shown)	not met
Cl.NC(=O)O[C@@H](CN1CCC(C(=O)c2ccc(F)cc2)CC1)c1ccccc1	not met
Cl.NC(=O)OC(CN1CCC(C(=O)c2ccc(F)cc2)CC1)c1ccc(Cl)c(Cl)c1 (stereo not shown)	met
Cc1ccc(C(CN2CCC(C(=O)c3ccc(F)cc3)CC2)n2cncn2)cc1C (stereo not shown)	not met
Cl.NC(=O)OC(CN1CCC(C(=O)c2ccc(F)cc2)CC1)c1cccc([N+](=O)[O-])c1 (stereo not shown)	not met
